Let's look at some pIC50 data for UniProtKB P03951 that I collected from the literature.
# log scale: pIC50 equals minus log10 of the concentration in mol/L

Known pIC50 results, listed for orientation:
compound	readout-number
Cc1ncc(-c2c(C(F)F)ccc(Cl)c2F)nc1C(=O)Nc1cnn(C(C)c2cnc(N3C[C@H]4C[C@H]4C3=O)nc2)c1 (single isomer, unassigned)	5.55
O=C(Cn1cc2c(cc1=O)-c1cc(Cl)ccc1CCNC2=O)Nc1ccc(C(=O)O)cc1	6.14

[Q] Param readout = pIC50; param system = UniProtKB P03951; param query = C[C@@H]1Cc2ccc(Cl)cc2-c2cc(=O)n([C@@H](CCOC(C)(C)C)C(=O)Nc3ccc(C(N)=O)c(F)c3)cc2CO1 (single isomer, unassigned) ; response: value
[A] 7.72

[Q] Find pIC50 (UniProtKB P03951) for the entry NC(=O)c1ccc(NC(=O)[C@H](C[C@@H]2CCCCO2)n2cc3c(cc2=O)-c2cc(Cl)ccc2C[C@@H](CO)OC3)cc1 (single isomer, unassigned)
[A] 8.68

[Q] Any idea what pIC50 came out for Cc1ncc(-c2c(C(F)F)ccc(Cl)c2F)nc1C(=O)Nc1cnn(C(CO)c2cnc(N3C[C@H]4C[C@H]4C3=O)nc2)c1 (single isomer, unassigned) on UniProtKB P03951?
[A] 5.69

---

Compiled from multiple publications: pIC50 readings for Coagulation factor XI (Homo sapiens).
pIC50 is defined as minus the log10 of a concentration measured in mol/L.

Solved entries:
compound	test-system	pIC50
Nc1c(C(=O)N2CCC[C@@]3(C2)OC(=O)Nc2ccc(Cl)c(F)c23)cnn1-c1ccccc1Oc1ccccc1	Coagulation factor XI (Homo sapiens)	5.86
COCC[C@@H](C(=O)Nc1ccc(C(N)=O)c(F)c1)n1cc2c(cc1=O)-c1cc(Cl)ccc1C[C@@H](C(F)(F)F)OC2 (single isomer, unassigned)	Coagulation factor XI (Homo sapiens)	8.00
Cc1nc(C(C)n2cc(NC(=O)c3nc(-c4c(C(F)F)ccc(Cl)c4F)cnc3CO)cn2)cnc1N1C[C@H]2C[C@H]2C1=O (single isomer, unassigned)	Coagulation factor XI (Homo sapiens)	6.96

[Q] Which measured pIC50 belongs to C[C@]1(O)CC[C@H](CC(C(=O)Nc2ccc(C(=O)O)cc2)c2ccc(-c3c(OC(F)F)ccc(Cl)c3F)c[n+]2[O-])CC1 (single isomer, unassigned) , tested on Coagulation factor XI (Homo sapiens)?
[A] 6.64

---

// note: pIC50 values for Coagulation factor XI (Homo sapiens, UniProt P03951) were reported in different studies
Note on pIC50: it is the negative log10 of concentration, concentration in mol/L.

Guide cases for pIC50, answers given:
compound	attribute-measured	readout-number
NC(=O)c1scc(-c2cnc(C(CC3CC3)c3ccc(-c4cc(Cl)ccc4-n4cnnn4)c[n+]3[O-])[nH]2)c1F (single isomer, unassigned)	pIC50	6.96
CC(c1cnc(N2CC[C@H]2CN2CC(C(C)(C)O)C2)nc1)n1cc(NC(=O)c2cncc(-c3c(C(F)F)ccc(Cl)c3F)n2)cn1 (stereo partly drawn)	pIC50	5.29

Field: next compound
[Q] Please tell me: pIC50 of C[C@@H](c1cnc(N2C[C@H]3C[C@H]3C2=O)nc1)n1cc(NC(=O)c2cncc(-c3c(C(F)F)ccc(Cl)c3F)n2)cn1 , system Coagulation factor XI (Homo sapiens, UniProt P03951)?
[A] 5.17

---

pIC50 values for UniProt P03951 compiled from several publications are listed below.
# pIC50: negative log10 of molar concentration; output just the value

molecule	test-system	pIC50
Nc1c(Cl)c(-c2ccccc2)nn1CC(=O)N1CCC[C@@]2(C1)OC(=O)Nc1ccc(Cl)c(F)c12	UniProt P03951	6.29
O=C(Nc1cnn([C@@H](CO)c2cnc(N3CCC3)nc2)c1)c1cncc(-c2c(C(F)F)ccc(Cl)c2F)n1 (single isomer, unassigned)	UniProt P03951	5.77
CCC(c1ccc2ncncc2c1)n1cc(C(=O)N2CCC[C@@]3(C2)OC(=O)Nc2ccc(Cl)c(F)c23)cn1 (single isomer, unassigned)	UniProt P03951	5.28

Here is the next item to consider.
[Q] // returns reported pIC50 for input CCc1ncc(-c2c(C(F)F)ccc(Cl)c2F)nc1C(=O)Nc1cnn(Cc2cnc(N3C[C@H]4C[C@H]4C3=O)c3c2OCO3)c1
[A] 6.13

---

The entries below pair compounds with pIC50 values for Coagulation factor XI (Homo sapiens, UniProt P03951), as found in several publications.
The meaning of pIC50 here: minus log10 of the concentration in molar units.

compound	attribute-measured	readout-number
COC(=O)c1ccc(-n2ncc(C(=O)N3CCC[C@@]4(C3)OC(=O)Nc3ccc(Cl)c(F)c34)c2N)c(OC)c1	pIC50	5.77
Cc1ncc(-c2c(C(F)F)ccc(Cl)c2F)nc1C(=O)Nc1cnn(C(C)c2cnc(N3CCC3)nc2)c1 (single isomer, unassigned)	pIC50	6.03

Kindly review the next compound as well.
[Q] So what pIC50 did Cc1cc(NC(=O)C(CC2CC2)c2ccc(-c3cc(Cl)ccc3-n3cnnn3)c[n+]2[O-])ccc1C(=O)O (single isomer, unassigned) get with Coagulation factor XI (Homo sapiens, UniProt P03951)?
[A] 7.24

---

Below are IC50 measurements against UniProt:P03951 drawn from the literature.

[Q] Using the record for COc1ccc(Cl)c(F)c1-c1ccc(C(CC2CC2)C(=O)Nc2ccc(C(=O)O)cc2)[n+]([O-])c1 (single isomer, unassigned) , report its IC50.
[A] > 1 µM

[Q] # IC50 lookup, item CC[C@@H](NC(=O)N1C(=O)[C@H](Cc2cc(C)nc(N)c2)[C@H]1C(=O)N(C)c1cnn(C)c1)c1ccc(C)cc1
[A] 0.01 to 0.1 µM

[Q] Can you look up the measured IC50 of CC[C@@H](NC(=O)N1C(=O)[C@H](Cc2ccnc(N)c2)[C@H]1C(=O)N(C)c1ccccc1)c1ccncc1 for me?
[A] 0.1 to 1 µM

---

The entries that follow carry pIC50 values tested on Coagulation factor XI (Homo sapiens), drawn from several published reports.
pIC50: −log10 of the molar value.

compound	pIC50
CC[C@@H](NC(=O)N1C(=O)[C@H](Cc2ccncc2)[C@H]1C(=O)N(C)c1ccncc1)C1CCCCC1	6.00 to 7.00
CC[C@@H](NC(=O)N1C(=O)[C@H](Cc2cc(C)nc(N)c2)[C@H]1C(=O)N(C)c1cn(C)cn1)c1ccccc1	7.00 to 8.00
Cc1nc(C(C)n2cc(NC(=O)c3nc(-c4c(C(F)F)ccc(Cl)c4F)cnc3C)cn2)ccc1N1C[C@H]2C[C@H]2C1=O (single isomer, unassigned)	< 5.00
CC[C@@H](NC(=O)N1C(=O)[C@H](Cc2ccnc(N)c2)[C@H]1C(=O)N(C)c1ccncc1)c1cccc(OC)c1	> 8.00

[Q] Provide the documented pIC50 with Coagulation factor XI (Homo sapiens) as the system for Cc1ncc(-c2c(C#N)ccc(Cl)c2F)nc1C(=O)Nc1cnn(C(CO)c2cnc(N3C[C@H]4C[C@H]4C3=O)nc2)c1 (single isomer, unassigned)
[A] < 5.00

---

Please find below IC50 data on Coagulation factor XI (Homo sapiens) compiled from the literature.
# number only, unit nM dropped from output

Consider the worked cases shown below.
compound	IC50 [nM]
COc1cc(C(Cc2ccccc2)C(=O)Nc2ccc(C(=O)O)cc2)[n+]([O-])cc1-c1cc(Cl)ccc1C#N (single isomer, unassigned)	9.39
C[C@@H]1Cc2ccc(Cl)cc2-c2cc(=O)n([C@@H](C)C(=O)Nc3ccc(C(N)=O)cc3)cc2CO1 (single isomer, unassigned)	9.8
COC(=O)Nc1ccc(-c2c[nH]c(C(Cc3ccc(F)cc3)c3ccc(-c4cc(Cl)ccc4C(F)F)c[n+]3[O-])n2)cc1 (single isomer, unassigned)	1.86
N#Cc1ccc(-c2c[nH]c(C(Cc3ccc(F)cc3)c3ccc(-c4cc(Cl)ccc4-n4cnnn4)c[n+]3[O-])n2)cc1 (single isomer, unassigned)	1.54
COc1nn([C@@H](Cc2ccccc2)C(=O)Nc2ccc(C(=O)O)cc2)c(=O)cc1-c1cc(Cl)ccc1C(C)=O	7.61
Cc1ccccc1-n1ncc(C(=O)N2CCC[C@@]3(C2)OC(=O)Nc2ccc(Cl)c(F)c23)c1N	1310

[Q] Requested read-out IC50, target or system Coagulation factor XI (Homo sapiens), entry CCOC(=O)c1[nH]c2nc1-c1ccc(NC(=O)OC)cc1NC(=O)C(C)(C)CCC[C@@H]2c1ccc(-c2cccc(Cl)c2F)c[n+]1[O-]
[A] 0.19

[Q] Report IC50 for [O-][n+]1cc(-c2cc(Cl)ccc2-n2cnnn2)ccc1C(Cc1ccc(F)cc1)c1nc(-c2ccc(F)cc2)c[nH]1 (single isomer, unassigned) tested on Coagulation factor XI (Homo sapiens).
[A] 14.8

[Q] Form field: IC50 recorded for COC(=O)[C@H](CC(C)C)NC(=O)c1cccc2c(C(=N)N)cn(CC(=O)Nc3cccnc3)c12 with Coagulation factor XI (Homo sapiens) (enter value)
[A] 100
